- Tested on: UACC-257 melanoma
- assay.details: NCI tumour cell line growth inhibition, 48 h
Would you kindly list TGI for each of these molecules?

Incoming: Recorded TGI for CCOC(=O)/C(C1=N[C@H](C(=O)OCC)CS1)=C(\C)O , please?
Outgoing: > 100 µM

Incoming: Recorded TGI for COc1cccc(NC(=O)c2sc3nc4c(cc3c2N)CCCC4)c1 , please?
Outgoing: > 100 µM

Incoming: Recorded TGI for Cc1ccc(/C=C2\CN(C)CC3C(c4ccc(C)cc4)=C(C#N)C(=O)NC23)cc1 (stereo unspecified) , please?
Outgoing: > 50 µM

Incoming: Recorded TGI for O=C1C2=C(c3ccccc31)C(c1cccc(Cl)c1)NC(=S)N2 (stereo unspecified) , please?
Outgoing: > 100 µM

Incoming: Recorded TGI for O=C(O)C(CS)NCc1c2ccccc2[n+]([O-])c2ccccc12 (stereo unspecified) , please?
Outgoing: > 100 µM

Incoming: Recorded TGI for S=C(NNC1=NCCCN1)Nc1ccccc1 , please?
Outgoing: > 100 µM

Incoming: Recorded TGI for Cc1ccc(S(=O)(=O)N2CCCSCCSCCCSCC2)cc1 , please?
Outgoing: > 100 µM

Incoming: Recorded TGI for CN1CCN(c2nc3ccccc3nc2C(=O)c2ccc(Cl)cc2)CC1 , please?
Outgoing: > 100 µM

Incoming: Recorded TGI for CC[C@@H](CCCC[C@@H]1CC[C@H]2CC(=O)C[C@@H]12)OC , please?
Outgoing: > 100 µM

Incoming: Recorded TGI for O=C1CC2CC=C[C@H]3c4cc5c(cc4C(=O)N1C23)OCO5 (stereo partly specified) , please?
Outgoing: > 50 µM

Incoming: Recorded TGI for CCOC(=O)CCC(NC(=O)c1ccc(N=Cc2nc3cc(C(F)(F)F)ccc3nc2-c2ccccc2)cc1)C(=O)OCC (stereo unspecified) , please?
Outgoing: > 100 µM

----------
- Tested on: HCT-116 colon
- assay.details: NCI tumour cell line growth inhibition, 48 h
assay.readout: TGI

Incoming: Recorded TGI for C=CC1C2=C(C(=O)NCC2)C2OC(O)C3=C(CCNC3=O)C2C1C (stereo not given) , please?
Outgoing: > 100 µM

Incoming: Recorded TGI for O=[N+]([O-])c1ccc(-c2ccc(/C=N/n3c(-c4ccc(Cl)cc4)n[nH]c3=S)o2)cc1 , please?
Outgoing: 43.6 µM

Incoming: Recorded TGI for CC12OC(C(=O)C13CC3)C1C(=O)c3ccccc3C(=O)C12 (stereo not given) , please?
Outgoing: > 100 µM

Incoming: Recorded TGI for O=C1/C(=C\c2ccc([N+](=O)[O-])cc2)Sc2scc(-c3ccc(O)c(O)c3)[n+]21 , please?
Outgoing: 75.2 µM

Incoming: Recorded TGI for O=[N+]([O-])c1ccc(Sc2ncccn2)c([N+](=O)[O-])c1 , please?
Outgoing: 11.8 µM

Incoming: Recorded TGI for CCCCN(CCCC)C(=O)C(=O)CC(=O)c1ccc(Br)cc1 , please?
Outgoing: > 100 µM

Incoming: Recorded TGI for Cc1nc2c(o1)C(=O)c1ccccc1C2=NC1CCCCC1N (stereo not given) , please?
Outgoing: 0.729 µM

Incoming: Recorded TGI for Cc1cc(C)nc(NS(=O)(=O)c2ccc(Nc3c4ccccc4nc4c(C(=O)Nc5ccc(S(N)(=O)=O)cc5)cccc34)cc2)n1 , please?
Outgoing: > 100 µM

Incoming: Recorded TGI for Cc1cc2nc(N3C(=O)/C(=C/c4cccc([N+](=O)[O-])c4)N=C3c3ccccc3)sc2cc1C , please?
Outgoing: > 100 µM

Incoming: Recorded TGI for C/C(=N\NC(=S)Nc1ccc(C(=O)O)cc1)c1ccccn1 , please?
Outgoing: 51.4 µM

Incoming: Recorded TGI for O=c1[nH]c2cc(C(F)(F)F)ccc2nc1Cc1ccccc1 , please?
Outgoing: > 100 µM

Incoming: Recorded TGI for COc1cc2c(cc1OC)C(=O)C(Br)CC2 (stereo not given) , please?
Outgoing: 3.72 µM

Incoming: Recorded TGI for NCC(O)CNCC/C=C\C/C=C\C/C=C\C/C=C\C/C=C\C/C=C\CCCCC/C=C\CCNCC(O)CN (stereo not given) , please?
Outgoing: 3.18 µM

Incoming: Recorded TGI for COc1ccccc1C(=O)/C=C/c1cc2cccc(OC)c2[nH]c1=O , please?
Outgoing: 0.632 µM

Incoming: Recorded TGI for CC(=O)[CH-]C(=O)c1ccccc1.CC(=O)[CH-]C(=O)c1ccccc1.CCN(CC)CC[O-].CCN(CC)CC[O-].Cl.[Ti+4] , please?
Outgoing: > 100 µM

----------
- Tested on: NCI-H522 lung
- assay.details: NCI tumour cell line growth inhibition, 48 h
assay.readout: TGI (µM)
Record the value in µM, omitting the unit from your answer.

Incoming: Recorded TGI for Nc1nc(Cl)c(C=O)c(NCC2(CO)CC(CCc3ccccc3)C2)n1 (stereo unspecified) , please?
Outgoing: 3.56

Incoming: Recorded TGI for O=[N+]([O-])c1ccc(Sc2ncccn2)c([N+](=O)[O-])c1 , please?
Outgoing: 3.11

Incoming: Recorded TGI for OC1c2ccccc2[C@@H]2[C@H]1[C@@H](c1ccccc1)C1(Cc3ccccc3C1O)[C@H]2c1ccccc1 (stereo partly specified) , please?
Outgoing: 14.2

Incoming: Recorded TGI for CC1=C(C(=O)Nc2ccccc2)C(c2ccc3c(c2)OCO3)C(C(=O)Nc2ccccc2)=C(C)N1 , please?
Outgoing: 73.3

Incoming: Recorded TGI for CN(C)CCOc1ccc(I)cc1Cc1ccccc1 , please?
Outgoing: 25

Incoming: Recorded TGI for C=C(c1ccccc1N)[C@@]1(O)C[C@H](/C(=C\C)CO)C[C@@H]1NCc1ccccc1 , please?
Outgoing: 33.4

Incoming: Recorded TGI for COc1ccccc1/C=C1\Sc2scc(-c3cccc([N+](=O)[O-])c3)[n+]2C1=O , please?
Outgoing: 3.61

Incoming: Recorded TGI for CC(=O)Oc1ccc(N2C(=O)C3c4[nH]c5ccccc5c4C4CCC(C(C)(C)C)CC4C3C2=O)cc1 (stereo unspecified) , please?
Outgoing: 9.93

Incoming: Recorded TGI for CCCCCCCCCCCCc1ccc(C(=O)/C=C/C(=O)O)cc1 , please?
Outgoing: 4.73

----------
- Tested on: NCI-H460 lung
- assay.details: NCI tumour cell line growth inhibition, 48 h
Would you kindly list TGI for each of these molecules?

Incoming: Recorded TGI for N#C/C(=C1\N=C(c2ccccc2O)Oc2ccccc21)c1ccc([N+](=O)[O-])cc1 , please?
Outgoing: > 100 µM

Incoming: Recorded TGI for Cc1nc2c(o1)C(=O)c1ccccc1C2=NC1CCCCC1N (stereo not given) , please?
Outgoing: 3.15 µM

Incoming: Recorded TGI for Cc1cc(NC(=O)C2c3ccccc3C(=O)N(CC(C)C)C2c2cccs2)no1 (stereo not given) , please?
Outgoing: > 100 µM

Incoming: Recorded TGI for COc1ccccc1/C=C1\Sc2scc(-c3cccc([N+](=O)[O-])c3)[n+]2C1=O , please?
Outgoing: 26.9 µM

Incoming: Recorded TGI for Cc1cc(C)nc(NS(=O)(=O)c2ccc(Nc3c4ccccc4nc4c(C(=O)Nc5ccc(S(N)(=O)=O)cc5)cccc34)cc2)n1 , please?
Outgoing: > 100 µM

Incoming: Recorded TGI for CC1=C(C(=O)Nc2ccccc2)C(c2ccc3c(c2)OCO3)C(C(=O)Nc2ccccc2)=C(C)N1 , please?
Outgoing: > 100 µM

Incoming: Recorded TGI for CCCCN(CCCC)C(=O)C(=O)CC(=O)c1ccc(Br)cc1 , please?
Outgoing: > 100 µM

Incoming: Recorded TGI for CCOC(=O)/C(C1=N[C@H](C(=O)OCC)CS1)=C(\C)O , please?
Outgoing: > 100 µM

Incoming: Recorded TGI for Cc1ccc(-c2c(C#N)c(N)nc(N3CCOCC3)c2C#N)o1 , please?
Outgoing: > 100 µM

Incoming: Recorded TGI for CC(=O)OC1/C(=C/c2ccc([N+](=O)[O-])cc2)C[C@H]2[C@@H]3CC=C4C[C@@H](OC(C)=O)CC[C@]4(C)[C@H]3CC[C@]12C (stereo not given in full) , please?
Outgoing: > 100 µM

Incoming: Recorded TGI for CC1=COC(=O)c2ccccc2N1 , please?
Outgoing: > 100 µM

Incoming: Recorded TGI for O/N=c1/ccn(O)c2ccccc12 , please?
Outgoing: 3.67 µM

Incoming: Recorded TGI for O=C1C(C(O)(C(F)(F)Cl)C(F)(F)Cl)CCC1C(O)(C(F)(F)Cl)C(F)(F)Cl (stereo not given) , please?
Outgoing: > 10 µM

Incoming: Recorded TGI for CC(=O)c1ccc(Nc2cc(-n3ccnc3)nc3ccccc23)cc1 , please?
Outgoing: > 100 µM

Incoming: Recorded TGI for COC(=O)c1cnc(=O)n(C2CC(O)C(CO)O2)c1 (stereo not given) , please?
Outgoing: > 100 µM

Incoming: Recorded TGI for O=C(O)c1cccc(S(=O)(=O)NN2C(=O)CSC2c2ccccc2)c1 (stereo not given) , please?
Outgoing: > 100 µM

Incoming: Recorded TGI for COc1cc(C2C(Cl)C(=O)N2n2cnc3ccccc3c2=O)cc(OC)c1OC (stereo not given) , please?
Outgoing: > 100 µM

Incoming: Recorded TGI for CC[C@@H]1CN2CCC1C[C@@H]2C(O)c1ccnc2ccc(OCCN3CCN(CCOc4ccc5nccc(C(O)[C@@H]6C[C@@H]7CCN6C[C@@H]7CC)c5c4)CC3)cc12 (stereo not given in full) , please?
Outgoing: 38.4 µM

Incoming: Recorded TGI for CC(=O)Oc1cc(OC(C)=O)c2c(=O)c3ccccc3n(C)c2c1 , please?
Outgoing: 67.5 µM

Incoming: Recorded TGI for COc1ccc(/C(=C/c2cc(OC)c(OC)c(OC)c2)[N+](=O)[O-])cc1 , please?
Outgoing: 5.23 µM
